target: Retinol Dehydrogenase 10 (RDH10) (Homo sapiens, UniProt Q8IZV5); construct: expressed in transfected cells; host or cells: 293T (microsomal fraction); assay: Inhibition of RDH10 enzyme activity (microsomal fraction of RDH10-expressed 293T, all-trans retinol to all-trans retinal, HPLC); type: biochemical; settings: final concentration of 20 μM; relative to DMSO control (FIG. 1)
Sequence (Q8IZV5 whole entry): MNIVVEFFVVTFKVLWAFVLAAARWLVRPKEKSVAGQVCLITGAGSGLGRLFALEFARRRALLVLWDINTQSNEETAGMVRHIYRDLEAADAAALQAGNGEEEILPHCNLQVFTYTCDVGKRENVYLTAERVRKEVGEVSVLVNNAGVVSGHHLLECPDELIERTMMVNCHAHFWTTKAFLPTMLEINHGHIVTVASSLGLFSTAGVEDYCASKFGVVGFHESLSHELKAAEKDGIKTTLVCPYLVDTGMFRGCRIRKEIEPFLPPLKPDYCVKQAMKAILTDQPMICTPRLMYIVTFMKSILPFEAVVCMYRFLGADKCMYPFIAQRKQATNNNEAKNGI
Readout name: RDH10 enzyme activity inhibitory action

INSERT INTO assay_data (compound, assay_system, readout_name, result) VALUES
  ('CCOC(=O)CNC(=O)NC1CC[C@]2(C)[C@H]3C(=O)C=C4[C@H]5C[C@@](C)(C(=O)OC)CC[C@]5(C)CC[C@@]4(C)[C@]3(C)CC[C@H]2C1(C)C (stereo partly drawn)', 'Retinol Dehydrogenase 10 (RDH10) (Homo sapiens, UniProt Q8IZV5)', 'RDH10 enzyme activity inhibitory action', 'relatively potent'),
  ('COC(=O)c1ccccc1NC(=O)NC1CC[C@]2(C)[C@H]3C(=O)C=C4[C@H]5C[C@@](C)(C(=O)OC)CC[C@]5(C)CC[C@@]4(C)[C@]3(C)CC[C@H]2C1(C)C (stereo partly drawn)', 'Retinol Dehydrogenase 10 (RDH10) (Homo sapiens, UniProt Q8IZV5)', 'RDH10 enzyme activity inhibitory action', 'relatively potent'),
  ('COC(=O)[C@@]1(C)CC[C@]2(C)CC[C@]3(C)C(=CC(=O)[C@@H]4[C@@]5(C)CCC(NC(=O)N[C@@H](Cc6ccccc6)C(=O)O)C(C)(C)[C@@H]5CC[C@]43C)[C@H]2C1 (stereo partly drawn)', 'Retinol Dehydrogenase 10 (RDH10) (Homo sapiens, UniProt Q8IZV5)', 'RDH10 enzyme activity inhibitory action', 'relatively potent'),
  ('CC(=O)NC1CC[C@]2(C)[C@H]3C(=O)C=C4[C@@H]5C[C@@](C)(C(N)=O)CC[C@]5(C)CC[C@@]4(C)[C@]3(C)CC[C@H]2C1(C)C (stereo partly drawn)', 'Retinol Dehydrogenase 10 (RDH10) (Homo sapiens, UniProt Q8IZV5)', 'RDH10 enzyme activity inhibitory action', 'relatively potent'),
  ('CC1(C)C(N)CC[C@]2(C)[C@H]3C(=O)C=C4[C@@H]5C[C@@](C)(C(N)=O)CC[C@]5(C)CC[C@@]4(C)[C@]3(C)CC[C@@H]12 (stereo partly drawn)', 'Retinol Dehydrogenase 10 (RDH10) (Homo sapiens, UniProt Q8IZV5)', 'RDH10 enzyme activity inhibitory action', 'relatively potent'),
  ('COC(=O)[C@@]1(C)CC[C@]2(C)CC[C@]3(C)C(=CC(=O)[C@@H]4[C@@]5(C)CCC(NC(=O)/C=C\C(=O)O)C(C)(C)[C@@H]5CC[C@]43C)[C@H]2C1 (stereo partly drawn)', 'Retinol Dehydrogenase 10 (RDH10) (Homo sapiens, UniProt Q8IZV5)', 'RDH10 enzyme activity inhibitory action', 'relatively potent');

// returns reported RDH10 enzyme activity inhibitory action for input CC1(C)C(NC(=O)c2ccccc2)CC[C@]2(C)[C@H]3C(=O)C=C4[C@@H]5C[C@@](C)(C(N)=O)CC[C@]5(C)CC[C@@]4(C)[C@]3(C)CC[C@@H]12 (stereo partly drawn) relatively potent
